Target: T1, ABH2 D173A (human, UniProt Q6NS38 1-261, D173A)
T1 sequence: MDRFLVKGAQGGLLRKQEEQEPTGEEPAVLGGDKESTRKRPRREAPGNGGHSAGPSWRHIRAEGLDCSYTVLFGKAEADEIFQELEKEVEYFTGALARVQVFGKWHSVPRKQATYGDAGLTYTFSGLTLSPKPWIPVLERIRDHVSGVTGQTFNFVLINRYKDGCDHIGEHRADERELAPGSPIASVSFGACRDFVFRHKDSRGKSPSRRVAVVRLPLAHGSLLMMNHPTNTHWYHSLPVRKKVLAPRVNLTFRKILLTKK
Assay: EMSA; 0.5 mM αKG, 10 mM Mg2+, 2 mM ascorbate; EMSA: 50 mM Tris-HCl pH 8.0, 50 mM KCl, 10 mM MgCl2, 0.5 mM αKG, 2 mM Na ascorbate; 1.2 µM DNA, 0.4-12.8 µM protein; 10 min 37 °C then 5 min on ice; 10% native
Conditions: protein: recombinant; tags: N-terminal His6; label: 5'-FAM on strand 1; blunt
assay_metric: Kd (µM)

{"binder": "m1A (dsDNA, N1-methyladenine at position 10 of strand 1) DNA 1: AGTTCAATGATCTTCAT DNA 2: ATGAAGATCATTGAACT", "unit_text": "µM", "result_value": 2.1}
{"binder": "m3C (dsDNA, N3-methylcytosine at position 12 of strand 1) DNA 1: AGTTCAATGATCTTCAT DNA 2: ATGAAGATCATTGAACT", "unit_text": "µM", "result_value": 3.09}

Where do the numbers come from? From paper PMC10377887.
